Sourced from patent US11541050B2

System Tested: human TLR7 (wild type sequence) (Homo sapiens, UniProt Q9NYK1)
Construct: expressed in transfected cells; host or cells: HEK293
Sequence (Q9NYK1 27-1049): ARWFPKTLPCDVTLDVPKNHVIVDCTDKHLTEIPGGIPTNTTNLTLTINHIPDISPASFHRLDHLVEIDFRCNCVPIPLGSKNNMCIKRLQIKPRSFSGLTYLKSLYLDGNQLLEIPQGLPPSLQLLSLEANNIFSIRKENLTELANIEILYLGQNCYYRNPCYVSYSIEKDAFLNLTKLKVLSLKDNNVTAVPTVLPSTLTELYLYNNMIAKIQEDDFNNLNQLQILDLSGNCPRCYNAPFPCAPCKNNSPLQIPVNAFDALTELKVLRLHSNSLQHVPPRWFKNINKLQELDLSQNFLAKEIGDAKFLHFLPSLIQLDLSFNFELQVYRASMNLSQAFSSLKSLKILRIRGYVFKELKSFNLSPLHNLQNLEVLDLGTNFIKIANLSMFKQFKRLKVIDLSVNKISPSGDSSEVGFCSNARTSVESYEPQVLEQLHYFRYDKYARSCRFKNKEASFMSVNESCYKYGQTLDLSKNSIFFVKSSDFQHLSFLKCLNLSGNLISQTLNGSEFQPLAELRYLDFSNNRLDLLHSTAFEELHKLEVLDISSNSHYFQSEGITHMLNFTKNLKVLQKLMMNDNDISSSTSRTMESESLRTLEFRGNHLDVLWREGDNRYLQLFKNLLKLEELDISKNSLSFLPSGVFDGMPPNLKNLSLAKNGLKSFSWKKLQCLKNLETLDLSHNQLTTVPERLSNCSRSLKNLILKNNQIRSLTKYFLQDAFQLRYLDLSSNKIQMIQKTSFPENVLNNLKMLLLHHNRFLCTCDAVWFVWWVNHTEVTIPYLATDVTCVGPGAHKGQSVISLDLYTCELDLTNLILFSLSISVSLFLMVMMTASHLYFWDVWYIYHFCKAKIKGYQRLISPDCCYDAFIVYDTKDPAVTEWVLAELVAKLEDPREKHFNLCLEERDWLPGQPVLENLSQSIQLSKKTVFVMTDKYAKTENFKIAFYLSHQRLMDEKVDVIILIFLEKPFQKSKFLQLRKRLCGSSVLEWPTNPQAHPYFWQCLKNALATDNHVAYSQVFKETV
Experiment: TLR7 cellular NFκB-luc reporter assay, wild type TLR7
Assay type: cell-based
Set-up: unit not given here
Condition Notes: lowest effective concentration, wild type TLR7
Reported Endpoint: TLR7-wt_LEC

CCC[C@@H](CCO)Nc1nc(N)ncc1OCc1nccc2ccccc12 :: 0.001
CCCC[C@@H](CCO)Nc1nc(N)ncc1OCCCc1ccc(OC)cc1 :: 0.385
CCC[C@@H](CO)Nc1nc(N)ncc1OCc1cccc(C(=O)O)n1 :: 4.850
CCCC[C@@H](CCO)Nc1nc(N)ncc1OCCOC :: 1.070
CCC[C@@H](CO)Nc1nc(N)ncc1OCc1cc(C)nn1C :: 1.770
CCCCNc1nc(N)ncc1OCC(CC)OC (stereo not shown) :: >25
CCCC[C@@H](CCO)Nc1nc(N)ncc1OCc1nccc2ccccc12 :: 0.001
CCC[C@@H](CO)Nc1nc(N)ncc1OCc1cc2ccccc2cn1 :: 0.074
CCCC[C@@H](CCO)Nc1nc(N)ncc1OCc1ncc(C)c(O)c1C :: 5.400
CCC[C@@H](CCO)Nc1nc(N)ncc1O[C@H]1CCc2c(Cl)ccnc21 :: 9.910
CCCCNc1nc(N)ncc1OCc1nc2ccccc2s1 :: 0.277
CCC[C@@H](CCO)Nc1nc(N)ncc1OCc1ccccn1 :: 0.197
CCCC[C@@H](CO)Nc1nc(N)ncc1OCc1cccc(C(=O)O)n1 :: 6.980
CCCC[C@@H](CCO)Nc1nc(N)ncc1OCc1cccc(C)n1 :: 0.047
CCC[C@@H](CO)Nc1nc(N)ncc1OCCCc1ccc(OC)cc1 :: 0.253
CCCCNc1nc(N)ncc1OCc1ncccc1F :: 0.225
CCCCNc1nc(N)ncc1OCc1cn2ccncc2n1 :: 0.208
CCCCNc1nc(N)ncc1OCc1ccc(CO)cc1 :: 0.472
CCCCNc1nc(N)ncc1OCC(C)O (stereo not shown) :: >25
CCC[C@@H](CCO)Nc1nc(N)ncc1OCc1ccncc1 :: 0.385
CCC[C@@H](C)Nc1nc(N)ncc1OCc1cn2ccccc2n1 :: 12.760
CCCC[C@@H](CO)Nc1nc(N)ncc1OCCOC :: 2.650
